# Test system: 186277-243-T-J2-PDC spheroids with HUVEC/MSC, viability
# assayComment: Anticancer human tumor 186277-243-T-J2-PDC patient-derived colon adenocarcinoma cell line growth inhibition [CLK]
# assaySetup: second compound 1 µM; first compound 10 µM; stronger effect = lower value
Threshold check on viability, T/C: strictly below 2% is class 1; on or above 2% is class 0.

viability, T/C strictly < 2% for this molecule? CC(CO)NC(=O)c1cc(-c2ccc(Cl)cc2)nn(-c2cnn(C)c2)c1=O (stereo not given) + CN1CCN(c2cc(C(=O)Nc3cc4cc(-c5cnn(C)c5)ccc4cn3)ccn2)CC1
class 1

viability, T/C strictly < 2% for this molecule? CC(=O)O[C@H]1C(=O)[C@@]2(C)[C@H]([C@H](OC(=O)c3ccccc3)[C@]3(O)C[C@H](OC(=O)[C@H](O)[C@@H](NC(=O)c4ccccc4)c4ccccc4)C(C)=C1C3(C)C)[C@]1(OC(C)=O)CO[C@@H]1C[C@@H]2O + CNC(=O)c1ccc(Nc2nc(OC3CCCC3)c3c(-c4ccc5nc(C)oc5c4)c[nH]c3n2)c(OC)c1
class 0

viability, T/C strictly < 2% for this molecule? O=c1[nH]cc(F)c(=O)[nH]1 + CN1CCN(c2cc(C(=O)Nc3cc4cc(-c5cnn(C)c5)ccc4cn3)ccn2)CC1
class 1

viability, T/C strictly < 2% for this molecule? O=C(c1cc(Cc2n[nH]c(=O)c3ccccc23)ccc1F)N1CCN(C(=O)C2CC2)CC1 + CNC(=O)c1ccc(Nc2nc(OC3CCCC3)c3c(-c4ccc5nc(C)oc5c4)c[nH]c3n2)c(OC)c1
class 0

viability, T/C strictly < 2% for this molecule? C=C(F)C(=O)N1CCN(c2nc(OCC3CCCN3C)nc3c2CCN(c2cccc4cccc(Cl)c24)C3)CC1CC#N (stereo not given) + CNC(=O)c1ccc(Nc2nc(OC3CCCC3)c3c(-c4ccc5nc(C)oc5c4)c[nH]c3n2)c(OC)c1
class 1

viability, T/C strictly < 2% for this molecule? CC(Nc1ccc2c(c1)OCCn1cc(N3C(=O)OCC3C(F)F)nc1-2)C(N)=O (stereo not given) + CNC(=O)c1ccc(Nc2nc(OC3CCCC3)c3c(-c4ccc5nc(C)oc5c4)c[nH]c3n2)c(OC)c1
class 0

viability, T/C strictly < 2% for this molecule? CC1(C)CCC(CN2CCN(c3ccc(C(=O)NS(=O)(=O)c4ccc(NCC5CCOCC5)c([N+](=O)[O-])c4)c(Oc4cnc5[nH]ccc5c4)c3)CC2)=C(c2ccc(Cl)cc2)C1 + CNC(=O)c1ccc(Nc2nc(OC3CCCC3)c3c(-c4ccc5nc(C)oc5c4)c[nH]c3n2)c(OC)c1
class 0

viability, T/C strictly < 2% for this molecule? CC1(C)CCC(CN2CCN(c3ccc(C(=O)NS(=O)(=O)c4ccc(NCC5CCOCC5)c([N+](=O)[O-])c4)c(Oc4cnc5[nH]ccc5c4)c3)CC2)=C(c2ccc(Cl)cc2)C1 + CN1CCN(c2cc(C(=O)Nc3cc4cc(-c5cnn(C)c5)ccc4cn3)ccn2)CC1
class 1

viability, T/C strictly < 2% for this molecule? C=C(F)C(=O)N1CCN(c2nc(OCC3CCCN3C)nc3c2CCN(c2cccc4cccc(Cl)c24)C3)CC1CC#N (stereo not given) + CN1CCN(c2cc(C(=O)Nc3cc4cc(-c5cnn(C)c5)ccc4cn3)ccn2)CC1
class 0

viability, T/C strictly < 2% for this molecule? C=CC(=O)N1CCN(c2nc(=O)n(-c3c(C)ccnc3C(C)C)c3nc(-c4c(O)cccc4F)c(F)cc23)C(C)C1 (stereo not given) + CNC(=O)c1ccc(Nc2nc(OC3CCCC3)c3c(-c4ccc5nc(C)oc5c4)c[nH]c3n2)c(OC)c1
class 0

###

Give IC50 for every item shown.
# Test system: 186277-243-T-J2-PDC spheroids with HUVEC/MSC, viability
# assayComment: Anticancer human tumor 186277-243-T-J2-PDC cell line growth inhibition [CLK];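 also: compound exposure lasted seven days before readout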
# assaySetup: curve of first compound; second compound 0.0316 µM

IC50 in this record for C=CC(=O)N1CCN(c2nc(=O)n(-c3c(C)ccnc3C(C)C)c3nc(-c4c(O)cccc4F)c(F)cc23)C(C)C1 (configuration not stated) + CNC(=O)c1ccc(Nc2nc(OC3CCCC3)c3c(-c4ccc5nc(C)oc5c4)c[nH]c3n2)c(OC)c1 : > 10 µM

IC50 in this record for C=CC(=O)Nc1cc(Nc2nccc(-c3cn(C)c4ccccc34)n2)c(OC)cc1N(C)CCN(C)C + CNC(=O)c1ccc(Nc2nc(OC3CCCC3)c3c(-c4ccc5nc(C)oc5c4)c[nH]c3n2)c(OC)c1 : > 0.3 µM

IC50 in this record for C=CC(=O)Nc1cc(Nc2nccc(-c3cn(C)c4ccccc34)n2)c(OC)cc1N(C)CCN(C)C + CN1CCN(c2cc(C(=O)Nc3cc4cc(-c5cnn(C)c5)ccc4cn3)ccn2)CC1 : > 0.3 µM

IC50 in this record for C=CC(=O)N1CCN(c2nc(=O)n(-c3c(C)ccnc3C(C)C)c3nc(-c4c(O)cccc4F)c(F)cc23)C(C)C1 (configuration not stated) + CN1CCN(c2cc(C(=O)Nc3cc4cc(-c5cnn(C)c5)ccc4cn3)ccn2)CC1 : > 10 µM

IC50 in this record for CC(CO)NC(=O)c1cc(-c2ccc(Cl)cc2)nn(-c2cnn(C)c2)c1=O (configuration not stated) + CNC(=O)c1ccc(Nc2nc(OC3CCCC3)c3c(-c4ccc5nc(C)oc5c4)c[nH]c3n2)c(OC)c1 : > 10 µM

IC50 in this record for Nc1ccn(C2OC(CO)C(O)C2(F)F)c(=O)n1 (configuration not stated) + CNC(=O)c1ccc(Nc2nc(OC3CCCC3)c3c(-c4ccc5nc(C)oc5c4)c[nH]c3n2)c(OC)c1 : < 0.0316 µM

IC50 in this record for CCCS(=O)(=O)Nc1ccc(F)c(C(=O)c2c[nH]c3ncc(-c4ccc(Cl)cc4)cc23)c1F + CN1CCN(c2cc(C(=O)Nc3cc4cc(-c5cnn(C)c5)ccc4cn3)ccn2)CC1 : > 10 µM

###

Give pIC50 for every item shown.
# System: 186277-243-T-J2-PDC spheroids with HUVEC/MSC, viability
# assayComment: Anticancer human tumor 186277-243-T-J2-PDC cell line growth inhibition [CLK];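 also: compound exposure lasted seven days before readout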
# assaySetup: curve of first compound; second compound 0.316 µM
pIC50: −log10 of the molar value.

pIC50 in this record for COc1c(OCCCN2CCOCC2)ccc2c3n(c(=NC(=O)c4cnc(N)nc4)nc12)CCN3 + CNC(=O)c1ccc(Nc2nc(OC3CCCC3)c3c(-c4ccc5nc(C)oc5c4)c[nH]c3n2)c(OC)c1 : > 8.50

pIC50 in this record for Nc1ccn(C2OC(CO)C(O)C2(F)F)c(=O)n1 (stereo not given) + CN1CCN(c2cc(C(=O)Nc3cc4cc(-c5cnn(C)c5)ccc4cn3)ccn2)CC1 : > 7.50

pIC50 in this record for C#Cc1c(F)ccc2cc(O)cc(-c3ncc4c(N5CC6CCC(C5)N6)nc(OCC56CCCN5CC(F)C6)nc4c3F)c12 (stereo not given) + CNC(=O)c1ccc(Nc2nc(OC3CCCC3)c3c(-c4ccc5nc(C)oc5c4)c[nH]c3n2)c(OC)c1 : > 7.50

pIC50 in this record for CC(=O)O[C@H]1C(=O)[C@@]2(C)[C@H]([C@H](OC(=O)c3ccccc3)[C@]3(O)C[C@H](OC(=O)[C@H](O)[C@@H](NC(=O)c4ccccc4)c4ccccc4)C(C)=C1C3(C)C)[C@]1(OC(C)=O)CO[C@@H]1C[C@@H]2O + CN1CCN(c2cc(C(=O)Nc3cc4cc(-c5cnn(C)c5)ccc4cn3)ccn2)CC1 : > 7.50

pIC50 in this record for NC(=O)C(=Cn1cnc(-c2cc(C(F)(F)F)cc(C(F)(F)F)c2)n1)c1cncnc1 + CNC(=O)c1ccc(Nc2nc(OC3CCCC3)c3c(-c4ccc5nc(C)oc5c4)c[nH]c3n2)c(OC)c1 : > 8.02

pIC50 in this record for O=c1[nH]cc(F)c(=O)[nH]1 + CN1CCN(c2cc(C(=O)Nc3cc4cc(-c5cnn(C)c5)ccc4cn3)ccn2)CC1 : > 7.50

pIC50 in this record for COC1C=CCC(C)C(C)S(=O)(=O)NC(=O)c2ccc3c(c2)N(CC2CCC21)CC1(CCCc2cc(Cl)ccc21)CO3 (stereo not given) + CNC(=O)c1ccc(Nc2nc(OC3CCCC3)c3c(-c4ccc5nc(C)oc5c4)c[nH]c3n2)c(OC)c1 : > 7.50

pIC50 in this record for CCN1CCN(Cc2ccc(Nc3ncc(F)c(-c4cc(F)c5nc(C)n(C(C)C)c5c4)n3)nc2)CC1 + CN1CCN(c2cc(C(=O)Nc3cc4cc(-c5cnn(C)c5)ccc4cn3)ccn2)CC1 : > 8.50

pIC50 in this record for CC(CO)NC(=O)c1cc(-c2ccc(Cl)cc2)nn(-c2cnn(C)c2)c1=O (stereo not given) + CN1CCN(c2cc(C(=O)Nc3cc4cc(-c5cnn(C)c5)ccc4cn3)ccn2)CC1 : > 7.50

pIC50 in this record for COc1c(OCCCN2CCOCC2)ccc2c3n(c(=NC(=O)c4cnc(N)nc4)nc12)CCN3 + CN1CCN(c2cc(C(=O)Nc3cc4cc(-c5cnn(C)c5)ccc4cn3)ccn2)CC1 : > 8.50

pIC50 in this record for CC(Nc1ccc2c(c1)OCCn1cc(N3C(=O)OCC3C(F)F)nc1-2)C(N)=O (stereo not given) + CNC(=O)c1ccc(Nc2nc(OC3CCCC3)c3c(-c4ccc5nc(C)oc5c4)c[nH]c3n2)c(OC)c1 : > 7.50

pIC50 in this record for CC1(C)CCC(CN2CCN(c3ccc(C(=O)NS(=O)(=O)c4ccc(NCC5CCOCC5)c([N+](=O)[O-])c4)c(Oc4cnc5[nH]ccc5c4)c3)CC2)=C(c2ccc(Cl)cc2)C1 + CNC(=O)c1ccc(Nc2nc(OC3CCCC3)c3c(-c4ccc5nc(C)oc5c4)c[nH]c3n2)c(OC)c1 : 5.76

pIC50 in this record for CC1COCCN1c1cc(C2(S(C)(=N)=O)CC2)nc(-c2ccnc3[nH]ccc23)n1 (stereo not given) + CNC(=O)c1ccc(Nc2nc(OC3CCCC3)c3c(-c4ccc5nc(C)oc5c4)c[nH]c3n2)c(OC)c1 : 6.40

pIC50 in this record for O=c1[nH]cc(F)c(=O)[nH]1 + CNC(=O)c1ccc(Nc2nc(OC3CCCC3)c3c(-c4ccc5nc(C)oc5c4)c[nH]c3n2)c(OC)c1 : > 7.50

pIC50 in this record for C=CC(=O)Nc1cc(Nc2nccc(-c3cn(C)c4ccccc34)n2)c(OC)cc1N(C)CCN(C)C + CNC(=O)c1ccc(Nc2nc(OC3CCCC3)c3c(-c4ccc5nc(C)oc5c4)c[nH]c3n2)c(OC)c1 : > 9.02
